Values were extracted from the supplement of paper PMC9170038.

Test system: MS2 coat protein
Assay: apparent KD of MS2 coat protein; higher = weaker reporter binding
Details: Eterna round: R107; input ligand: none
Please note: true applies when apparent KD of MS2 coat protein is 0.3 µM or greater, and false applies otherwise.

Prompt line: # check: apparent KD of MS2 coat protein of UGUAUGUGAUCUGAUACCAGCCUCAUAGCUUGAGGAUCACCCAAGUGGAGCGGAAACGCUGGCCCUUGGCAGCAGAUCGCAUACU [TheoBS 1 #AlternativeMS2] is greater than or equal to 0.3 µM
Response line: true

Prompt line: # check: apparent KD of MS2 coat protein of AGCCAUGGAAACAUGGCGGCGGCAUGAGCGCGAGGACCGGUACGGCCGCCACUCGGGCGACAUGAGGAUCACCCAUGUUCCUCAU [ETA NP+V+V2 #22 Same Structure] is greater than or equal to 0.3 µM
Response line: false

Prompt line: # check: apparent KD of MS2 coat protein of GUGGCGAUCACGGCCGCCACUGAGCAGGUCGAGCUUGACAUGAGGAUCACCCAUGUCUGACGAUACAGGACCGGGUGAUCUCCGC [Titiinanon] is greater than or equal to 0.3 µM
Response line: false

Prompt line: # check: apparent KD of MS2 coat protein of AGUUGACAAAAGUCAGCAACAUGAUCCGAAGGAGCGGGCGAAAGCCCAGGUAGGUCGCGGACAUGAGGAUCACCCAUGUCUCCUU [ArgAX 3 #OpenEnded #Sliding] is greater than or equal to 0.3 µM
Response line: false

Prompt line: # check: apparent KD of MS2 coat protein of AAAACAUGAGGAUCACCCAUGUGGUGAGAAGGAGCGUCGGAAAUGACAGGUAGGUCGCUUAUCCGUAAGUAUUAGUGUUAGUACA [SSArg A #1] is greater than or equal to 0.3 µM
Response line: false

Prompt line: # check: apparent KD of MS2 coat protein of ACAUGAGGAUCACCCAUGUAAAUAGCGGAAGGAGCGUGCAAAAGCACAGGUAGGUCGCCGAUAUAAUAAUUGGGUAAUAUAUUAU [#27 Exclusion - Arginine A] is greater than or equal to 0.3 µM
Response line: false

###

System: MS2 coat protein
Experiment: apparent KD of MS2 coat protein; designed switch direction (-1 OFF switch, 1 ON switch): 1; higher = weaker reporter binding
Settings: Eterna round: R95; input ligand: none
Kindly supply the reported apparent KD of MS2 coat protein values for the records listed here.
# output: bare number, implied unit nM

Note to self: apparent KD of MS2 coat protein recorded for AUAAAACAUGAGGAUCACCCAUGUCAACAAAGUCGAGGAUAUGGGCAAAUAAAAUAAGAUCCAGAAGGCGAAUAAU [salish99_ss1_r3_016] (puzzle: Same State 1) was 92.7

Note to self: apparent KD of MS2 coat protein recorded for AAUUAUUAACAUGAGGAUCACCCAUGUAUUAUUAUUAACAAGCUUUGCUCUACAUGGGUGCUCGUCUUAUUUAUUAA [AthenaIerokomos] (puzzle: Sensor for hsa-mir-208a version 2) was 32.5

Note to self: apparent KD of MS2 coat protein recorded for GCAGAACAUGAGGAUCACCCAUGUCUCUAAUAUUGAGGAUAUGGGCACGGUAUAUCCGAACCAGAAGGCGAACUGC [SS1 Teenbexe 16] (puzzle: Same State 1) was 431

Note to self: apparent KD of MS2 coat protein recorded for AGUCCAGCGAAAGCUGGACAAAAGCAUGUACAUGAGGAUCACCCAUGUUCGUGUACAAGCUUUUUGCUCGUCUUAAA [JL mod - D95 - 5] (puzzle: Sensor for hsa-mir-208a) was 554

Note to self: apparent KD of MS2 coat protein recorded for GAGUAGGAGUUACAGGAUAUAUGGAGGUGGACAUGAGGAUCACCCAUGUGAGAGAUGAGAGGAGGAUAGAAGGGUAAGGGAGUAA [JR_SS2_Sub029] (puzzle: Same State 2) was 486

###

Test system: MS2 coat protein
Assay: apparent KD of MS2 coat protein; higher = weaker reporter binding
Details: Eterna round: R107; input ligand: tryptophan 2.4 mM
quantity_kind: apparent KD of MS2 coat protein

Note to self: apparent KD of MS2 coat protein recorded for UGAUCCUGCAGGGAUACCAGCGCCGCUAGAUAACUAUGCACAUGAGGAUCACCCAUGUAACGCCCUUGGCAGCCCAACUAAAGGG [Same State Theophylline B GF21] was 35.2 nM

Note to self: apparent KD of MS2 coat protein recorded for GAGCUGAUGUAGAAAUUUUAUUUCUGAGAUACCAGUACAGAAAUGUACCCUUGGCAGCUCAGUUUUACAUGAGGAUCACCCAUGU [Ex Theophylline A 15] was 13.1 nM

Note to self: apparent KD of MS2 coat protein recorded for AAUAAUCUAGGUGAUACCAGCUCAACAUGAGGAUCACCCAUGUACUCAUGUAGAGUUGAGAGCCCUUGGCAGCACCUAGAUAAUA [(Theo1)-(Ms2)-(M)'-(T)'-(Theo2)] was 1020 nM

Note to self: apparent KD of MS2 coat protein recorded for UCGUAGGUAGGAAGGAGCGCAUACUUCACAUGAGGAUCACCCAUGUCGAGACGUGAGUCAGUGCAGGUAGGUCGCCUAGCUAUGA [Same State - Arginine B (Freestyle 25)] was 18.7 nM

Note to self: apparent KD of MS2 coat protein recorded for AAAUAAAUACAUGAGGAUCACCCAUGUGAAGGAGCGCCCGUUAGGGCAGGUAGGUCGCGCAUGAAUAACUCCGUGCAAAAGCACA [ArgEX 19 #OpenEnded] was 19.6 nM

Note to self: apparent KD of MS2 coat protein recorded for ACACAUGAUAGAAGGAGCGCAAUGAACACACAUGAGGAUCACCCAUGUUUUUUUUGUGUUUUGCAGGUAGGUCGCUAACAUGAGG [Same State Arginine B 4] was 8.32 nM

Note to self: apparent KD of MS2 coat protein recorded for UACAUGAGGAUCACCCAUGUAUGAAUGGAUACCAGCGACAAUGGGCGCCCUUGGCAGCUAGUGGAUGAAGGGUGGGUACAAUACU [Exclusion Theophyline A GF4] was 11.4 nM

Note to self: apparent KD of MS2 coat protein recorded for UCACAUGAGGAUCACCCAUGUAUAGUUGAAGGAGCGAUCAGGAGGUCAGGUAGGUCGCAGCACAUGAGGAUCACCCAUGUAUCGA [DOUBLE!!! :-D #4] was 59.5 nM

Note to self: apparent KD of MS2 coat protein recorded for UUGGUACAUGAGGAUCACCCAUGUACUGAAGGAGCGGGACGAAUCUCAGGUAGGUCGCAGACAUGAGGAUCACCCAUGUAUUGGU [Exclusion Arginine A GF 16] was 16.5 nM

Note to self: apparent KD of MS2 coat protein recorded for GCUGCCGUCGGUGAAAACUCCCAUGCAGAUACCAGCGCAUUCCGCCGCCCUUGGCAGCUGCAUACAUGAGGAUCACCCAUGUGUU [theeternabot_exclusion_MS2_Theo_A_48] was 77.3 nM

Note to self: apparent KD of MS2 coat protein recorded for CCUAUGCAGUCGGCCGCCACUGAACAUGAGGAUCACCCAUGUAAUUAUAAAUAUGGUCCUAAAAUCAGGACCGGGACUGUAUAGG [Ex Tryptophan B 7] was 237 nM

###

Test system: MS2 coat protein
Assay: apparent KD of MS2 coat protein; designed switch direction (-1 OFF switch, 1 ON switch): -1; higher = weaker reporter binding
Settings: input ligand: microRNA oligo, concentration not stated
Output schema: class label derived from apparent KD of MS2 coat protein. Mapping: bin 1 (below 20 nM), bin 2 (20 nM to below 70 nM), bin 3 (70 nM or more)

Prompt line: Sort into band: UAUUGCAAGUGAGGAUAUGACAUGAGGAUCACCCAUGUAAAGGGAGUUGGCUAUAUAGCAAGAUAUCAGAAGGCACAACUGUAU [JR_ExcNG2_Sub005] (Eterna round: R96, puzzle: Exclusion NG 2)
Response line: bin 2

Prompt line: Sort into band: AUUAUAUAGUUAGGAUAUUGAUUAUUAUUUUAACAUGAGGAUCACCCAUGUAGCCUUAUGUAUAACAAGAAGGAACAUUUAUUA [Title] (Eterna round: R96, puzzle: Exclusion NG 2)
Response line: bin 3

Prompt line: Sort into band: AAGUCCGAGCGAGGAUAUUCACCUCAGUCAGCUGAAGAAGGCGCUAAGCGGUGAUUAUUUUGUACAUGAGGAUCACCCAUGUCA [Eternabot solution 49] (Eterna round: R96, puzzle: Exclusion NG 1)
Response line: bin 2

Prompt line: Sort into band: ACGCAUUGCCUUUGGUAGUGCGUAACAUGAGGAUCACCCAUGUAGGAUAUGGUAGGCUUUGCUUACCAGAAGGACAUUAUAAAG [Mat - Exclusion NG 3 - Mod of JL - D10] (Eterna round: R96, puzzle: Exclusion NG 3)
Response line: bin 2

Prompt line: Sort into band: CUGCUGAAGCUUUGCUUUAGUCGUACAUGAGGAUCACCCAUGUAGGAUAUGGUAGGCUUUGCUUACUAGAAGGAUAGAGUGAUC [salish99_ExNG3_r04_604] (Eterna round: R96, puzzle: Exclusion NG 3)
Response line: bin 3

Prompt line: Sort into band: AAGUACCGGUGAGGAUAUUUAUAAUAGAGCUUUAUGAUAUACAUGAGGAUCACCCAUGUUACUUUAAAGAAGGCAUCGGAUUAA [Mat - Exclusion NG 2 - Mod of JL - D92] (Eterna round: R96, puzzle: Exclusion NG 2)
Response line: bin 1

Prompt line: Sort into band: ACAUGUAAUGCAGGAUAUUUUACACAUGAGGAUCACCCAUGUGACCAGAGGAAUUGCUAUGAGUAAAAGAAGGGUAUGUACAUG [Ex NG2 #57] (Eterna round: R96, puzzle: Exclusion NG 2)
Response line: bin 2

Prompt line: Sort into band: AGCUGUGGCCGAGGAUAUCUAUCUCAAAUAACCGAAAUAUAAUCGGACAUGAGGAUCACCCAUGUAGAGAAGGCGGUCUCAGCA [Eli eng2 - 089] (Eterna round: R96, puzzle: Exclusion NG 2)
Response line: bin 1

Prompt line: Sort into band: UCACGGGACUAAGGAUAUAUGAGUACCAUUUACAUAGAAGGUAGAAUGUUAGAUCAUAAACUAAACAUGAGGAUCACCCAUGUU [JR_ExcNG1_Sub092] (Eterna round: R96, puzzle: Exclusion NG 1)
Response line: bin 1

Prompt line: Sort into band: ACAUGAGGAUCACCCAUGUCCGGCUGGUCUGUUCCGGUUGUCGAGGAUAUAGUUCGGUGUUCGCGCUAGAAGGCGGGAGCUGGA [Aenatbe mod 53] (Eterna round: R96, puzzle: Exclusion NG 3)
Response line: bin 3

Prompt line: Sort into band: UUUAAUUUUUUUUUUUUACAAGCUUUUUGCUCGUCUUAUACAUGAGGAUCACCCAUGUGGGUAGAGAGUAAAUUAUC [JMF 59] (Eterna round: R96, puzzle: Sensor v3, turn-off variant 2)
Response line: bin 3

Prompt line: Sort into band: ACAUGAGGAUCACCCAUGUGGACGUAAUGGCUCAUGUAGAGUGAGGAUAUGUGAGACGAACGAGAACAGAAGGCACAAGACAGG [Deportation 7 - Jieux - Exclusion NG 3] (Eterna round: R96, puzzle: Exclusion NG 3)
Response line: bin 1

Prompt line: Sort into band: CCCAGUUAUGAAGGAUAUUGUACAUGAGGAUCACCCAUGUAAUAAAUGAGGAUUUCGGGUGUCUACAAGAAGGUCAGGAUAGGC [Ostracism 14 - Jieux - Exclusion NG 2] (Eterna round: R96, puzzle: Exclusion NG 2)
Response line: bin 2

Prompt line: Sort into band: UACAUGAGGAUCACCCAUGUUUUGUCGUGUAUGGUAUUUAUCUAGGAUAUCAAUUUGUUUAUUUAUGAGAAGGAGAAUAUUAAU [JMF's solution 16] (Eterna round: R96, puzzle: Exclusion NG 3)
Response line: bin 2

Prompt line: Sort into band: AGAUAGAGCUGAGGAUAUGAGAAUAGAAAGAAAUCAGAAGGCAGACAUGAGGAUCACCCAUGUGAGUUCUUGAGAUUACAUGGU [Prohibition 43 - Jieux - Exclusion NG 1] (Eterna round: R96, puzzle: Exclusion NG 1)
Response line: bin 3

Prompt line: Sort into band: GGCUAGUCAGGAUAUACGAACAUGUCAAAAGACGUGAAGGGACAUGAGGAUCACCCAUGUAGAAGGGACUAGCC [salish99_ex2_r3_004] (Eterna round: R96, puzzle: Exclusion 2)
Response line: bin 2

Prompt line: Sort into band: ACAUGAGGAUCACCCAUGUGAAAAGAAUGGCUGACACAGAGAUAGGAUAUAUGUGCAUAUCAAACAUAGAAGGGUCAUGACUGG [Deportation 83 - Jieux - Exclusion NG 3] (Eterna round: R96, puzzle: Exclusion NG 3)
Response line: bin 2
